# Measurement Protocol: Cmax in ferret infected with SARS-CoV-2 assessed as prodrug conversion by measuring (2R,3R,4S,5R)-2-(4-aminopyrrolo[2,1-f][1,2,4]triazin-7-yl)-3,4-dihydroxy-5-(hydroxymethyl)tetrahydrofuran-2-carbonitrile at 10 mg/kg, po BID measured after 4 days by LC-MS/MS analysis
# Assay type: ADME, organism-based, Mustela putorius furo
# Design: time 4 day, dose 10 mg/kg, route po
# Condition Set: in vivo, 96 h
Test Readout: Cmax

So, "CC(C)C(=O)OC[C@H]1O[C@@](C#N)(c2ccc3c(N)ncnn23)[C@H](OC(=O)C(C)C)[C@@H]1OC(=O)C(C)C" ? Its Cmax was 5 µM

* * *

# Measurement Protocol: Stability of compound in rat liver S9 fraction assessed as half life at pH 7.4 measured upto 90 mins by LC-MS/MS analysis
# Type: ADME, subcellular
Test Readout: half-life at […] (min)
Write the value in min as a bare number.

So, "CC(=O)OC[C@H]1O[C@@](C#N)(c2ccc3c(N)ncnn23)[C@H](O)[C@@H]1O" ? Its half-life at […] was 10

So, "CC(C)C(=O)OC[C@H]1O[C@@](C#N)(c2ccc3c(N)ncnn23)[C@H](OC(=O)C(C)C)[C@@H]1OC(=O)C(C)C" ? Its half-life at […] was 2.9

* * *

# key: entry, value: CC50 at 48 h
# Measurement Protocol: Cytotoxicity against human A549-ACE2 cells assessed as reduction in cell growth measured after 48 hrs by CellTiter-Glo assay
# Assay type: toxicity, cell-based
# Condition Set: A549-ACE2 cells

entry_smiles=N#C[C@@]1(c2ccc3c(N)ncnn23)O[C@H](CO)[C@@H](O)[C@H]1O reported="> 50 µM"

Next compound, please.
So, "CC(C)C(=O)OC[C@H]1O[C@@](C#N)(c2ccc3c(N)ncnn23)[C@H](O)[C@@H]1O" ? Its CC50 at 48 h was > 50 µM

* * *

# Measurement Protocol: Cytotoxicity against human NHBE-T cells assessed as reduction in cell growth measured after 5 days by CellTiter-Glo assay
# Assay type: toxicity, cell-based
# Condition Set: NHBE-T cells, time 5 day
# key: entry, value: CC50 at 120 h

So, "CC(C)C(=O)OC[C@H]1O[C@@](C#N)(c2ccc3c(N)ncnn23)[C@H](O)[C@@H]1O" ? Its CC50 at 120 h was > 50 µM

So, "CCC(CC)COC(=O)[C@H](C)N[P@](=O)(OC[C@H]1O[C@@](C#N)(c2ccc3c(N)ncnn23)[C@H](O)[C@@H]1O)Oc1ccccc1" ? Its CC50 at 120 h was > 50 µM

* * *

# Measurement Protocol: Cmax in African green monkey infected with SARS-CoV-2 assessed as prodrug conversion by measuring (2R,3R,4S,5R)-2-(4-aminopyrrolo[2,1-f][1,2,4]triazin-7-yl)-3,4-dihydroxy-5-(hydroxymethyl)tetrahydrofuran-2-carbonitrile at 10 mg/kg, iv qd administered for day 1 followed by 5 mg/kg administration measured after 6 days by LC-MS/MS analysis
# Format: ADME, organism-based, Severe acute respiratory syndrome coronavirus 2
# Parameters: dose 10 mg/kg, time 6 day, route iv
# Condition Set: in vivo
Test Readout: Cmax (nM)
Write the value in nM as a bare number.

So, "CCC(CC)COC(=O)[C@H](C)N[P@](=O)(OC[C@H]1O[C@@](C#N)(c2ccc3c(N)ncnn23)[C@H](O)[C@@H]1O)Oc1ccccc1" ? Its Cmax was 1230

* * *

# Measurement Protocol: Stability of compound in rat plasma assessed as half life measured upto 4 hrs by LC-MS/MS analysis
# Type: ADME, cell-free
Test Readout: half-life

Known results for compounds:
entry_smiles=CC(=O)OC[C@H]1O[C@@](C#N)(c2ccc3c(N)ncnn23)[C@H](O)[C@@H]1O reported="3 min"
entry_smiles=CC(=O)OC[C@H]1O[C@@](C#N)(c2ccc3c(N)ncnn23)[C@H](OC(C)=O)[C@@H]1OC(C)=O reported="< 2 min"
entry_smiles=CC(C)C(=O)OC[C@H]1O[C@@](C#N)(c2ccc3c(N)ncnn23)[C@H](OC(=O)C(C)C)[C@@H]1OC(=O)C(C)C reported="< 2 min"

So, "CC(C)C(=O)OC[C@H]1O[C@@](C#N)(c2ccc3c(N)ncnn23)[C@H](O)[C@@H]1O" ? Its half-life was < 3 min

* * *

# Tested on: Huh-7
# Measurement Protocol: Cytotoxicity against human Huh-7 cells assessed as reduction in cell growth measured after 5 days by CellTiter-Glo assay
# Type: toxicity, cell-based
# Condition Set: huh-7, 120 h, time 5 day
# key: entry, value: CC50

Known results for compounds:
entry_smiles=N#C[C@@]1(c2ccc3c(N)ncnn23)O[C@H](CO)[C@@H](O)[C@H]1O test_readout=CC50 reported="> 89 µM"
entry_smiles=CC(C)C(=O)OC[C@H]1O[C@@](C#N)(c2ccc3c(N)ncnn23)[C@H](O)[C@@H]1O test_readout=CC50 reported="> 44 µM"

Next compound, please.
So, "COc1ccc(C[C@H](N)C(=O)N[C@H]2[C@@H](O)[C@H](n3cnc4c(N(C)C)ncnc43)O[C@@H]2CO)cc1" ? Its CC50 was 0.43 µM

* * *

# Measurement Protocol: Aqueous stability of the compound assessed as compound remaining at pH 7 measured at 24 hrs by UPLC analysis
# Assay type: physicochemical
# Condition Set: aqueous solution, read-out: Stability
Test Readout: remaining at 24 h (%)
Write the value in % as a bare number.

entry_smiles=CC(=O)OC[C@H]1O[C@@](C#N)(c2ccc3c(N)ncnn23)[C@H](OC(C)=O)[C@@H]1OC(C)=O test_readout="remaining at 24 h" measure_unit=% reported=79

Next molecule, please.
So, "CC(=O)OC[C@H]1O[C@@](C#N)(c2ccc3c(N)ncnn23)[C@H](O)[C@@H]1O" ? Its remaining at 24 h was 96

* * *

# Measurement Protocol: Cytotoxicity against human HepG2 cells assessed as reduction in cell growth measured after 5 days by CellTiter-Glo assay
# Format: toxicity, cell-based
# Condition Set: HepG2 cells, time 5 day
Test Readout: CC50 at 120 h (µM)
Write the value in µM as a bare number.

So, "CCC(CC)COC(=O)[C@H](C)N[P@](=O)(OC[C@H]1O[C@@](C#N)(c2ccc3c(N)ncnn23)[C@H](O)[C@@H]1O)Oc1ccccc1" ? Its CC50 at 120 h was 11.1

* * *

# Measurement Protocol: Cytotoxicity against quiescent human PBMC cells assessed as reduction in cell growth measured after 5 days by CellTiter-Glo assay
# Format: toxicity, cell-based
# Condition Set: quiescent PBMC, time 5 day
Test Readout: CC50 at 120 h

So, "CCC(CC)COC(=O)[C@H](C)N[P@](=O)(OC[C@H]1O[C@@](C#N)(c2ccc3c(N)ncnn23)[C@H](O)[C@@H]1O)Oc1ccccc1" ? Its CC50 at 120 h was > 20 µM

* * *

# Measurement Protocol: Thermodynamic aqueous solubility at pH 7 measured at 24 hrs by UPLC analysis
# Format: physicochemical
# Condition Set: aqueous solution, read-out: Therm_solubility
Test Readout: solubility thermodynamic at 24 h (µg/mL)
Write the value in µg/mL as a bare number.

entry_smiles=CC(=O)OC[C@H]1O[C@@](C#N)(c2ccc3c(N)ncnn23)[C@H](O)[C@@H]1O reported=1000

Next compound, please.
So, "CC(=O)OC[C@H]1O[C@@](C#N)(c2ccc3c(N)ncnn23)[C@H](OC(C)=O)[C@@H]1OC(C)=O" ? Its solubility thermodynamic at 24 h was 1400

* * *

# Tested on: CES1c
# Measurement Protocol: Stability of compound assessed as human recombinant CES1c-mediated compound hydrolysis by measuring half life at pH 7.4 using oseltamivir as substrate measured upto 120 mins by LC-MS/MS analysis
# Type: ADME
# Condition Set: pH 7.4, probe oseltamivir
Test Readout: half-life (min)
Write the value in min as a bare number.

So, "CC(C)C(=O)OC[C@H]1O[C@@](C#N)(c2ccc3c(N)ncnn23)[C@H](O)[C@@H]1O" ? Its half-life was 4.3

* * *

# key: entry, value: half-life at […]
# Measurement Protocol: Stability of compound in cynomolgus monkey liver S9 fraction assessed as half life at pH 7.4 measured upto 90 mins by LC-MS/MS analysis
# Assay type: ADME, subcellular, Macaca fascicularis

compound=CC(C)C(=O)OC[C@H]1O[C@@](C#N)(c2ccc3c(N)ncnn23)[C@H](OC(=O)C(C)C)[C@@H]1OC(=O)C(C)C test_readout="half-life at […]" reported="< 2 min"
compound="CC(C)C(=O)OC[C@H]1O[C@@](C#N)(c2ccc3c(N)ncnn23)[C@H](O)[C@@H]1O [OBELDESIVIR]" test_readout="half-life at […]" reported="< 2 min"
compound=CC(=O)OC[C@H]1O[C@@](C#N)(c2ccc3c(N)ncnn23)[C@H](OC(C)=O)[C@@H]1OC(C)=O test_readout="half-life at […]" reported="< 2 min"

So, "CC(=O)OC[C@H]1O[C@@](C#N)(c2ccc3c(N)ncnn23)[C@H](O)[C@@H]1O" ? Its half-life at […] was 5.3 min
